Measured EC50 by item
system: NQO1 activation in BEAS-2B cells; experiment: BEAS-2B cellular MTT assay of NQO1 activation, 0% HSA; assay type: cell-based; conditions: Homo sapiens, Serum Free W, read-out: BEAS EC50 (nM) Serum Free W
Could you give me the number in nM? Just the number is fine.

Some entries whose results are on file:
## Input Report EC50 for C[C@H](C(=O)O)[C@H]1c2ccc(nc2)OCCCCCc2ccc(cc2)C(=O)N2CCc3ccc1cc3C2 please.
## Output 333

## Input Report EC50 for Cc1c2ccc3c1nnn3CCCCCCc1ccc(c(F)c1)C(=O)N1CCc3ccc(cc3C1)[C@@H]2[C@H](C)C(=O)O please.
## Output 34.5

## Input Report EC50 for Cc1c2ccc3c1nnn3CCCCCCc1ccc(c3ncccc13)C(=O)N1CCc3ccc(cc3C1)[C@@H]2CC(=O)O please.
## Output 57.3

## Input Report EC50 for Cc1cc2ncc1[C@@H]([C@H](C)C(=O)O)c1ccc3c(c1)CN(CC3)C(=O)c1ccc(cc1)CCCCCO2 please.
## Output 7.4

## Input Report EC50 for Cc1c2ccc3c1nnn3CCCCCCc1ccc3c(c1)cc(n3CCCF)C(=O)N1CCc3ccc(cc3C1)[C@@H]2CC(=O)O please.
## Output 7.7

## Input Report EC50 for Cc1c2ccc3c1nnn3CCCCCCc1ccc(cc1OC(F)F)C(=O)N1CCc3ccc(cc3C1)[C@@H]2CC(=O)O please.
## Output 18.1

## Input Report EC50 for Cc1cc2ncc1[C@H]([C@H](C)C(=O)O)c1ccc3c(c1)CN(CC3)C(=O)c1ccc(cc1)C/C=C/CCO2 please.
## Output 0.2

## Input Report EC50 for Cc1c2ccc3c1nnn3CCCCCCc1ccc(c(F)c1)C(=O)N1CCc3ccc(cc3C1)[C@@H]2[C@@H](C)C(=O)O please.
## Output 34.7

***
## Input Report EC50 for C[C@@H](C(=O)O)[C@@H]1c2ccc(nc2)OCC/C=C/Cc2ccc(cc2)C(=O)N2CCc3ccc1cc3C2 please.
## Output 0.7

## Input Report EC50 for Cc1cc2ccc1C(=O)N1CCc3ccc(cc3C1)[C@H](CC(=O)O)c1cnc(cc1C)OCCCCC2 please.
## Output 23.9
